From: patent US9566312B2

SUBJECT OF TEST: cyclophilin A (CypA) (Homo sapiens (Human))
Sequence (P62937 whole entry): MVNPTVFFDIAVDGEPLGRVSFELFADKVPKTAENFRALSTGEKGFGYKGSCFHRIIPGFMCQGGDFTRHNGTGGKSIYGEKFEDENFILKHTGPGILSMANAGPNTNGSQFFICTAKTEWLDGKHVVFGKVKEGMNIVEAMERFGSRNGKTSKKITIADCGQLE
PROTOCOL NOTES: Inhibitor binding to cyclophilin proteins by SPR, CypA;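 further: Single-cycle kinetics on a Biacore T200, compound injected at several concentrations for 1 min each at 50 µL/min, then 10 min dissociation, in HEPES pH 7.4 buffer with 3% DMSO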
Design: unit not given here
APPLIED CONDITIONS: 1:1 binding model
Starred links: 1 amine or outer side, 2 acyl side, 3 side chain; linkers in the order of their positions; H or OH if unused. Non-standard residues stand in square brackets, D forms with d. Residues, ends and D or L forms follow the SMILES beside them. X27 = C[C@H](COCC(=O)N1CCN(C2CCOCC2)CC1)[C@@H](C(=O)[*:2])N(C)[*:1]; X37 = C[C@H](CN1CCC(S(C)(=O)=O)CC1)[C@@H](C(=O)[*:2])N(C)[*:1]; X1 = COC[C@@H]1CN(C[C@H](C)[C@@H](C(=O)[*:2])N(C)[*:1])CCO1; X76 = CO[C@H](CN1CCOCC1)[C@@H](C(=O)[*:2])N(C)[*:1]; MeBmt = C/C=C/C[C@@H](C)[C@@H](O)[C@H](NC)C(=O)O; NMeL = CN[C@@H](CC(C)C)C(=O)O; NMeV = CN[C@H](C(=O)O)C(C)C; dNMeA = CN[C@H](C)C(=O)O; Abu = CC[C@H](N)C(=O)O
Note to self: use 1 (yes) only for CypA Kd readings below 4; a reading exactly at 4 still gets 0 (no).

-- ask Input C/C=C/C[C@@H](C)[C@@H](O)[C@H]1C(=O)N[C@@H](CC)C(=O)N(C)[C@H](CCCO)C(=O)N(C)[C@@H]([C@H](C)CS(C)(=O)=O)C(=O)N[C@@H](C(C)C)C(=O)N(C)[C@@H](CC(C)C)C(=O)N[C@@H](C)C(=O)N[C@H](C)C(=O)N(C)[C@@H](CC(C)C)C(=O)N(C)[C@@H](CC(C)C)C(=O)N(C)[C@@H](C(C)C)C(=O)N1C (stereo in doubt) [Compound 3.4.1] ; condition: CypA Kd strictly below 4. Does it hold?
-- reply 0 (no)

-- ask Input C/C=C/C[C@@H](C)[C@@H](O)[C@H]1C(=O)N[C@@H](CC)C(=O)N(C)[C@H](C)C(=O)N(C)[C@@H]([C@@H](CN2CCOCC2)OC)C(=O)N[C@@H](C(C)C)C(=O)N(C)[C@@H](CC(C)C)C(=O)N[C@@H](C)C(=O)N[C@H](C)C(=O)N(C)[C@@H](CC(C)C)C(=O)N(C)[C@@H](CC(C)C)C(=O)N(C)[C@@H](C(C)C)C(=O)N1C [Compound 2.21.1] (cyclo(A[dA][NMeL][NMeL][NMeV][MeBmt][Abu][dNMeA][X76]V[NMeL])) ; condition: CypA Kd strictly below 4. Does it hold?
-- reply 1 (yes)

-- ask Input C/C=C/C[C@@H](C)[C@@H](O)[C@H]1C(=O)N[C@@H](CC)C(=O)N(C)[C@H](C)C(=O)N(C)[C@@H]([C@H](C)CN2CCC(S(C)(=O)=O)CC2)C(=O)N[C@@H](C(C)C)C(=O)N(C)[C@@H](CC(C)C)C(=O)N[C@@H](C)C(=O)N[C@H](C)C(=O)N(C)[C@@H](CC(C)C)C(=O)N(C)[C@@H](CC(C)C)C(=O)N(C)[C@@H](C(C)C)C(=O)N1C [Compound 2.5.20] (cyclo(A[dA][NMeL][NMeL][NMeV][MeBmt][Abu][dNMeA][X37]V[NMeL])) ; condition: CypA Kd strictly below 4. Does it hold?
-- reply 1 (yes)

-- ask Input C/C=C/C[C@@H](C)[C@@H](O)[C@H]1C(=O)N[C@@H](CC)C(=O)N(C)[C@H](C)C(=O)N(C)[C@@H]([C@@H](C)CN2CCO[C@H](COC)C2)C(=O)N[C@@H](C(C)C)C(=O)N(C)[C@@H](CC(C)C)C(=O)N[C@@H](C)C(=O)N[C@H](C)C(=O)N(C)[C@@H](CC(C)C)C(=O)N(C)[C@@H](CC(C)C)C(=O)N(C)[C@@H](C(C)C)C(=O)N1C [Compound 2.17.11] (cyclo(A[dA][NMeL][NMeL][NMeV][MeBmt][Abu][dNMeA][X1]V[NMeL])) ; condition: CypA Kd strictly below 4. Does it hold?
-- reply 1 (yes)

-- ask Input C/C=C/C[C@@H](C)[C@@H](O)[C@H]1C(=O)N[C@@H](CC)C(=O)N(C)[C@H](C)C(=O)N(C)[C@@H]([C@H](C)COCC(=O)N2CCN(C3CCOCC3)CC2)C(=O)N[C@@H](C(C)C)C(=O)N(C)[C@@H](CC(C)C)C(=O)N[C@@H](C)C(=O)N[C@H](C)C(=O)N(C)[C@@H](CC(C)C)C(=O)N(C)[C@@H](CC(C)C)C(=O)N(C)[C@@H](C(C)C)C(=O)N1C [Compound 2.6.2] (cyclo([MeBmt][Abu][dNMeA][X27]V[NMeL]A[dA][NMeL][NMeL][NMeV])) ; condition: CypA Kd strictly below 4. Does it hold?
-- reply 1 (yes)

====

SUBJECT OF TEST: UniProt P30405
Sequence (P30405 30-207): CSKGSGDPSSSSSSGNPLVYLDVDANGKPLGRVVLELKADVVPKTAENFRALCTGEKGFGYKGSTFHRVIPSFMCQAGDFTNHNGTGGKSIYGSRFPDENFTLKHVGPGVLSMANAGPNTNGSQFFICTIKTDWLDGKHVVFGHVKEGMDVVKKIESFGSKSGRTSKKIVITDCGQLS
PROTOCOL NOTES: Inhibitor binding to cyclophilin proteins by SPR, CypF
APPLIED CONDITIONS: 1:1 binding model
Starred links: 1 amine or outer side, 2 acyl side, 3 side chain; linkers in the order of their positions; H or OH if unused. Non-standard residues stand in square brackets, D forms with d. Residues, ends and D or L forms follow the SMILES beside them. X64 = COC[C@@H]1CN(C[C@@H](C)[C@@H](C(=O)[*:2])N(C)[*:1])CCO1; MeBmt = C/C=C/C[C@@H](C)[C@@H](O)[C@H](NC)C(=O)O; NMeL = CN[C@@H](CC(C)C)C(=O)O; NMeV = CN[C@H](C(=O)O)C(C)C; dNMeA = CN[C@H](C)C(=O)O; Abu = CC[C@H](N)C(=O)O
ENDPOINT LABEL: CypF Kd (nM)
Quick note: give the figure in nM, leave out the unit.

-- ask Which measured CypF Kd belongs to C/C=C/C[C@@H](C)[C@@H](O)[C@H]1C(=O)N[C@@H](CC)C(=O)N(C)[C@H](C)C(=O)N(C)[C@@H]([C@H](C)CN2CCO[C@H](COC)C2)C(=O)N[C@@H](C(C)C)C(=O)N(C)[C@@H](CC(C)C)C(=O)N[C@@H](C)C(=O)N[C@H](C)C(=O)N(C)[C@@H](CC(C)C)C(=O)N(C)[C@@H](CC(C)C)C(=O)N(C)[C@@H](C(C)C)C(=O)N1C [Compound 2.5.34] (cyclo(A[dA][NMeL][NMeL][NMeV][MeBmt][Abu][dNMeA][X64]V[NMeL])) , tested on UniProt P30405?
-- reply 0.6

====

SUBJECT OF TEST: organic anion transporting polypeptide 1B1 (OATP1B1) (Homo sapiens (Human), UniProt Q9Y6L6)
Sequence (Q9Y6L6 whole entry): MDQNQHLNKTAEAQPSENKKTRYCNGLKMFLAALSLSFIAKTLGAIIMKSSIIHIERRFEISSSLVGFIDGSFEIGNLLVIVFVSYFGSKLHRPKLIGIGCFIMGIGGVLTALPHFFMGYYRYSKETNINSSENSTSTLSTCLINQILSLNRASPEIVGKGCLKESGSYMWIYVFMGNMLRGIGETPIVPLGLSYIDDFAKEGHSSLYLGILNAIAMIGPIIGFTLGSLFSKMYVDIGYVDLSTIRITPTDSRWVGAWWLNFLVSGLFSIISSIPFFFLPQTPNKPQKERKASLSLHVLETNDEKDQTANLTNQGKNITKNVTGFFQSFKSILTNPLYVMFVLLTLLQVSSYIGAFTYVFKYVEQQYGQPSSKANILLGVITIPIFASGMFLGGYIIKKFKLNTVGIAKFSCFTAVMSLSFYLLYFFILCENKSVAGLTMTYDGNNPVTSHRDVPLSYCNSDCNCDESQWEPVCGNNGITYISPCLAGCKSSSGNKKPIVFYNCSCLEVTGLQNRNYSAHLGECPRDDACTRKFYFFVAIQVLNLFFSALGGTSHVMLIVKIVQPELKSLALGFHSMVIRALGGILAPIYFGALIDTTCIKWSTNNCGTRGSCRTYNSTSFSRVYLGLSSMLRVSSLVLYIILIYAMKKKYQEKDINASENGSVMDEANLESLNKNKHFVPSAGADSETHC
PROTOCOL NOTES: OATP assay in CHO-OATP1B1 cells;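 further: inhibition of probe substrate uptake into the cells, ten minutes exposure, accumulated substrate read by fluorescence once cells were lysed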
Starred links: 1 amine or outer side, 2 acyl side, 3 side chain; linkers in the order of their positions; H or OH if unused. Non-standard residues stand in square brackets, D forms with d. Residues, ends and D or L forms follow the SMILES beside them. X68 = C[C@H](CCN1CCC(C#N)CC1)[C@@H](C(=O)[*:2])N(C)[*:1]; MeBmt = C/C=C/C[C@@H](C)[C@@H](O)[C@H](NC)C(=O)O; X77 = COC[C@H](C)[C@@H](C(=O)[*:2])N(C)[*:1]; NMeL = CN[C@@H](CC(C)C)C(=O)O; NMeV = CN[C@H](C(=O)O)C(C)C; dNMeA = CN[C@H](C)C(=O)O; Abu = CC[C@H](N)C(=O)O
ENDPOINT LABEL: pIC50
# pIC50 = -log10(concentration in molar units)

-- ask Which pIC50 value is on record for C/C=C/C[C@@H](C)[C@@H](O)[C@H]1C(=O)N[C@@H](CC)C(=O)N(C)[C@H](C)C(=O)N(C)[C@@H]([C@@H](C)COC)C(=O)N[C@@H](C(C)C)C(=O)N(C)[C@@H](CC(C)C)C(=O)N[C@@H](C)C(=O)N[C@H](C)C(=O)N(C)[C@@H](CC(C)C)C(=O)N(C)[C@@H](CC(C)C)C(=O)N(C)[C@@H](C(C)C)C(=O)N1C [Compound 2.2] (cyclo(A[dA][NMeL][NMeL][NMeV][MeBmt][Abu][dNMeA][X77]V[NMeL])) ?
-- reply 5.72

-- ask Which pIC50 value is on record for C/C=C/C[C@@H](C)[C@@H](O)[C@H]1C(=O)N[C@@H](CC)C(=O)N(C)[C@H](C)C(=O)N(C)[C@@H]([C@H](C)CCN2CCC(C#N)CC2)C(=O)N[C@@H](C(C)C)C(=O)N(C)[C@@H](CC(C)C)C(=O)N[C@@H](C)C(=O)N[C@H](C)C(=O)N(C)[C@@H](CC(C)C)C(=O)N(C)[C@@H](CC(C)C)C(=O)N(C)[C@@H](C(C)C)C(=O)N1C [Compound 2.18.2] (cyclo(A[dA][NMeL][NMeL][NMeV][MeBmt][Abu][dNMeA][X68]V[NMeL])) ?
-- reply 5.62
